Tested on: MDA-MB-436 (mutated BRCA1) cells
Assay Details: Cell growth inhibition assay (CellTiter-Glo), MDA-MB-436
Type: cell-based
Condition Parameters: Homo sapiens, 168 h; MDA-MB-436 cells, 7 days, CellTiter Glo 2.0
Items are presented alongside their recorded pIC50.
Remember the convention: pIC50 equals -log10 of concentration in molar.

Exam item: Quick one: pIC50 of CNC(=O)c1ccc(O[C@H]2CN(Cc3ccc4nc(C)c(=O)[nH]c4c3F)[C@@H]2C)c(F)n1 ?
Marked response: 7.64

Exam item: Quick one: pIC50 of Cc1nc2ccc(CN3C[C@H](Oc4ccc(C(=O)NC5CC5)nc4F)[C@H]3C)c(F)c2[nH]c1=O ?
Marked response: 8.05
